experiment: Aqueous solubility of the compound at 1 mM by UV spectroscopic assay; assay type: physicochemical; details: buffer

smi | units.symbol | solubility at 1000 µM
O=c1c(O)c(-c2ccc(O)c(O)c2)oc2c(CNCc3ccccc3)c(O)cc(O)c12 | µM | 49
O=c1c(O)c(-c2ccc(O)c(O)c2)oc2c(CNCCc3ccccc3F)c(O)cc(O)c12 | µM | 95
O=c1c(O)c(-c2ccc(O)c(O)c2)oc2c(CNCc3ccco3)c(O)cc(O)c12 | µM | 40
O=c1c(O)c(-c2ccc(O)c(O)c2)oc2c(CNCCc3c(Cl)cccc3Cl)c(O)cc(O)c12 | µM | 199
O=c1c(O)c(-c2ccc(O)c(O)c2)oc2c(CN3CCCCC3)c(O)c(CN3CCCCC3)c(O)c12 | µM | 247
